Kb listing for selected molecules.
Test System: Glutamate receptor ionotropic, AMPA (Rattus norvegicus) (UniProt P19491+P19492+P19493+P19490)
Test Name: Binding affinity against rat brain Non N-methyl-D-aspartate glutamate receptor glutamate site expressed in Xenopus oocyte

>  <Entry Smiles>
Oc1nc2cc(Br)c(C(F)(F)F)cc2nc1O

>  <Kb [µM]>
1.49

$$$$
>  <Entry Smiles>
O=[N+]([O-])c1c(F)c(Br)cc2nc(O)c(O)nc12

>  <Kb [µM]>
1.4

$$$$
>  <Entry Smiles>
Oc1nc2cc(Cl)c(Cl)c(Br)c2nc1O

>  <Kb [µM]>
4.11

$$$$
>  <Entry Smiles>
Oc1nc2cc(F)c(C(F)(F)F)cc2nc1O

>  <Kb [µM]>
3.78

$$$$
>  <Entry Smiles>
O=[N+]([O-])c1c(F)c(Cl)c(F)c2nc(O)c(O)nc12

>  <Kb [µM]>
6.56

$$$$
>  <Entry Smiles>
O=[N+]([O-])c1c(Cl)c(Cl)c(Cl)c2nc(O)c(O)nc12

>  <Kb [µM]>
14.1

$$$$

* * *

Test Name: Selectivity for glycine site

>  <Entry Smiles>
Oc1nc2cc(F)cc(C(F)(F)F)c2nc1O

>  <Selectivity>
4.8

$$$$
>  <Entry Smiles>
Oc1nc2cc(C(F)(F)F)cc(C(F)(F)F)c2nc1O

>  <Selectivity>
4.9

$$$$
>  <Entry Smiles>
Oc1nc2cc(C(F)(F)F)cc(Cl)c2nc1O

>  <Selectivity>
7.1

$$$$
>  <Entry Smiles>
Oc1nc2cc(F)c(C(F)(F)F)cc2nc1O

>  <Selectivity>
1.5

$$$$
>  <Entry Smiles>
O=[N+]([O-])c1c(Br)c(C(F)(F)F)cc2nc(O)c(O)nc12

>  <Selectivity>
17

$$$$
>  <Entry Smiles>
Oc1nc2ccc(Cl)cc2nc1O

>  <Selectivity>
6.3

$$$$
>  <Entry Smiles>
O=[N+]([O-])c1c(Cl)c(C(F)(F)F)cc2nc(O)c(O)nc12

>  <Selectivity>
15

$$$$
>  <Entry Smiles>
O=[N+]([O-])c1cc(C(F)(F)F)cc2nc(O)c(O)nc12

>  <Selectivity>
13

$$$$
>  <Entry Smiles>
Oc1nc2cc(Cl)c(Cl)c(Br)c2nc1O

>  <Selectivity>
43

$$$$
>  <Entry Smiles>
O=[N+]([O-])c1c(Cl)cc2nc(O)c(O)nc2c1[N+](=O)[O-]

>  <Selectivity>
24

$$$$
>  <Entry Smiles>
Oc1nc2cc(F)c(Cl)cc2nc1O

>  <Selectivity>
4.5

$$$$
>  <Entry Smiles>
Oc1nc2cc(C(F)(F)F)cc(Br)c2nc1O

>  <Selectivity>
4.2

$$$$

* * *

Test Name: Selectivity for glycine site

>  <Entry Smiles>
O=[N+]([O-])c1c(Br)c(Cl)cc2nc(O)c(O)nc12

>  <Selectivity>
120

$$$$
>  <Entry Smiles>
Oc1nc2cc(Cl)cc(Cl)c2nc1O

>  <Selectivity>
13

$$$$
>  <Entry Smiles>
Oc1nc2ccccc2nc1O

>  <Selectivity>
5.9

$$$$
>  <Entry Smiles>
Oc1nc2cc(C(F)(F)F)c(Cl)c(Cl)c2nc1O

>  <Selectivity>
6.5

$$$$
>  <Entry Smiles>
O=[N+]([O-])c1ccc2nc(O)c(O)nc2c1

>  <Selectivity>
0.7

$$$$
>  <Entry Smiles>
Oc1nc2cc(Br)cc(Br)c2nc1O

>  <Selectivity>
6.8

$$$$
>  <Entry Smiles>
O=[N+]([O-])c1c(Cl)c(Cl)c(Cl)c2nc(O)c(O)nc12

>  <Selectivity>
11

$$$$
>  <Entry Smiles>
O=[N+]([O-])c1c(F)c(F)cc2nc(O)c(O)nc12

>  <Selectivity>
19

$$$$
>  <Entry Smiles>
Oc1nc2cc(Cl)cc(C(F)(F)F)c2nc1O

>  <Selectivity>
7.6

$$$$
>  <Entry Smiles>
Oc1nc2cc(Cl)c(Cl)c(C(F)(F)F)c2nc1O

>  <Selectivity>
14

$$$$
>  <Entry Smiles>
Oc1nc2cc(F)c(Cl)c(F)c2nc1O

>  <Selectivity>
7.3

$$$$
